target: SH2 domain-containing protein 1A (Homo sapiens, UniProt O60880); experiment: Inhibition of recombinant 6-His-tagged SLAM associated protein SH2 domain (unknown origin) expressed in Escherichia coli BL21(DE3) binding to biotinyl-KKSLTIpYAQVQK-NH2 attached to NeutrAvidin-coated plates using p-nitrophenyl phosphate as substrate after 1 hr
Sequence (O60880 whole entry, the tested form may be a part): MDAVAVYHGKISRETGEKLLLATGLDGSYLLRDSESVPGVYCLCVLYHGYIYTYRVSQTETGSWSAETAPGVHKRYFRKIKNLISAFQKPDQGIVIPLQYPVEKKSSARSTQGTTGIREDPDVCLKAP
metricName: IC50 (µM)

NC(=O)[C@H](Cc1ccccc1)NC(=O)[C@H](Cc1ccc2c(c1)COP(=O)(O)O2)NC(=O)OCC1c2ccccc2-c2ccccc21 ... 35

[I] CC(C)(C)OC(=O)NCCCC[C@H](NC(=O)[C@H](Cc1ccc2c(c1)COP(=O)(O)O2)NC(=O)OCC1c2ccccc2-c2ccccc21)C(N)=O
[II] NC(=O)[C@H](CC(=O)O)NC(=O)[C@H](Cc1ccc2c(c1)COP(=O)(O)O2)NC(=O)OCC1c2ccccc2-c2ccccc21
Ask | Task for the reader: decide whether I or II has the larger IC50. Write down the label of the entry you select.
Reply | I

Source: ChEMBL document CHEMBL2321862
